Could you please report measured IC50 for the items listed next?
- system.under.test: T1, human LIGHT (TNFSF14), full length, membrane-bound (214E allele) (human, UniProt O43557 1-240)
- T1 construct: also called membrane LIGHT; human membrane LIGHT
- experiment.summary: competition with biotin-LTβR-Fc, EL4-LIGHT cells, flow cytometry
State the answer as a number, implicitly in nM.

Value of IC50 reported for the binder 3E09 (antibody, V domains shown, chimeric human IgG4 (S-to-P, L-to-E at 248), human CL; also called Parental 3E09) VH: EVQLVESGGGLVKPGGSLKLSCEASGFTFSDYYMYWVRQTPEKRLEWVAAIGDGGIYTYYADTVKGRFTISRDNAKNILYLQMSSLKSNDTAMYYCARGTGDGFAYWGQGTLVTVS VL: DIVLTQSPASLAVSLGQRATISCRASESVDSYGNSFMHWYQQKPGQPPKLLIYLASNLESGVPARFSGSGSRTDFTLTIDPVEADDAATYYCQQNNEDPYTFGGGTKLEIK is 38

Recorded result, 3C10 (antibody, human IgG4, V domains shown, chimeric human IgG4 (S-to-P, L-to-E at 248), human CL; also called Parental 3C10) VH: EVQLQQSGAELVRPGASVTLSCKASDYTFTDSEIHWVKQTPVHGLEWIGEIDPETGGTAYNQKFKGKATLTADKSSSTAYMELRSLTSEDSAVYYCSRETDYFFDYWGQGTTLTVSS VL: DVVMTQTPAIMSASPGEKVTMTCSASSSVSYMYWYQQKPGSSPRLLIYDTSNLASGVPVRFSGSGSGTSYSLTISRMEAEDAATYYCQQWSSYPLTFGAGTKLELK , IC50: 0.86

Measured values drawn from patent US20230035798A1 for this set.
